Origin of the recorded values: ChEMBL document CHEMBL1201862

test system: CCRF-CEM; assay: NCI tumour cell line growth inhibition, 48 h
Activity calls are given as the source filed them. No stated cut-off is given here; in the data, active = GI50 up to about 1.1 µM and inactive = higher.
Assign GI50 to each entry below.

Example results:
Compound: CC[C@@]1(N(C)C)C(=O)OCc2c1cc1n(c2=O)Cc2cc3ccccc3nc2-1
Test Target: CCRF-CEM
GI50: 18.5 µM (inactive)

Compound: Oc1cc(O)c2c(-c3c(O)c(-c4ccc(O)c(O)c4)[o+]c4cc(O)cc(O)c34)c(O)c(-c3ccc(O)c(O)c3)[o+]c2c1
Test Target: CCRF-CEM
GI50: > 10 µM (inactive)

Compound: O=C1NC(c2ccccc2)C1N(Cc1ccccc1)Cc1ccccc1 (stereo not given)
Test Target: CCRF-CEM
GI50: > 100 µM (inactive)

Compound: CN(NC(=O)c1ccco1)C1=NCCN1
Test Target: CCRF-CEM
GI50: > 100 µM (inactive)

Compound: N#CSC#Cc1ccc(C#CSC#N)cc1
Test Target: CCRF-CEM
GI50: 10.1 µM (inactive)

For every item below, please supply its GI50.
1. CSc1nc(N)c(NC2OC(CO)C(O)C2O)c(=O)[nH]1 (stereo not given)
2. COC(=O)C1=C(C)N2CCCOC2(C)C(C(=O)OC)C1c1cccc(Cl)c1 (stereo not given)
3. COC(=O)c1c(O)ccc2c1c1c(n2Cc2ccccc2Cl)C(=O)c2ccccc2C1=O

Solution:
> 100 µM (inactive)
27.7 µM (inactive)
8.38 µM (inactive)

For every item below, please supply its GI50.
1. Cc1ccc([S+]([O-])C[C@@]2(C(F)F)NC(=O)NC2=O)cc1 (stereo not given in full)
2. Nc1ccc(-c2nc3ccccc3s2)cc1C(F)(F)F
3. FC1=C2CCCCCC2SC1(F)F (stereo not given)
4. CC(C)(C)OC(=O)N1CCCC1C(=O)NC(c1ccccc1)c1ccccc1 (stereo not given)
5. NCCSc1nc(N)c2ncn(C3OC(CO)C(O)C3O)c2n1 (stereo not given)

Solution:
1: > 100 µM (inactive); 2: 21.1 µM (inactive); 3: 3.36 µM (inactive); 4: > 100 µM (inactive); 5: > 100 µM (inactive)

For every item below, please supply its GI50.
1. COc1ccc(/C(C=O)=C(\Cl)c2ccc(OC)c(OC)c2)cc1
2. COc1cccc2c1C(=O)c1c(O)c3c(c(O)c1C2=O)C[C@@](O)(C(C)=O)CC3S(=O)(=O)O (stereo not given in full)
3. C#CCCCC(=C)C[C@H](OCc1ccccc1)[C@H]1OC(=O)[C@@H]1C

Solution:
1. 52.4 µM (inactive)
2. > 100 µM (inactive)
3. > 100 µM (inactive)

* * *

test system: SF-539; experiment: NCI tumour cell line growth inhibition, 48 h
Activity calls are given as the source filed them. Rule as the data show it: active = GI50 up to about 1.1 µM and inactive = higher.
I would appreciate it if you answered using one of these outcomes: active, inactive

Compound: Cn1nnc2c(C(N)=S)ncn2c1=O
Class Assignment: inactive

Exercise: Write down the call the test reported for this compound. Item: CCCNC(=O)Nc1c([N+](=O)[O-])cc(C(F)(F)F)cc1[N+](=O)[O-]
Solution: inactive

Exercise: Write down the call the test reported for this compound. Item: CCC1(O)C[C@H]2CN(CCCc3c([nH]c4ccccc34)[C@@](C(=O)OC)(c3cc4c(cc3OC)N(C)C3[C@](O)(C(=O)OC)[C@H](OC(C)=O)[C@]5(CC)C=CCN6CC[C@]43[C@H]65)C2)C1 (stereo partly specified)
Solution: active

Exercise: Write down the call the test reported for this compound. Item: Cc1ccc(O)c(C2=NNC(c3cccc(Cl)c3)C2)c1 (stereo unspecified)
Solution: inactive

Exercise: Write down the call the test reported for this compound. Item: Cc1nc2ccccc2nc1-c1ccc(/N=[N+](\[O-])c2ccc(-c3nc4ccccc4nc3C)cc2)cc1
Solution: inactive

Exercise: Write down the call the test reported for this compound. Item: Cc1ccc2[nH]c3c(C)c4cc[n+](C)cc4c(C)c3c2c1
Solution: active

Exercise: Write down the call the test reported for this compound. Item: CCOC(=O)c1c(NC(=S)Nc2ccc(C)cc2)sc2c1CCN(C)C2
Solution: inactive

Exercise: Write down the call the test reported for this compound. Item: CC1(C)N=c2c(ncn2CCO)=C(C(N)=O)N1
Solution: inactive

Exercise: Write down the call the test reported for this compound. Item: CCCN1CC=CCC1
Solution: inactive

Exercise: Write down the call the test reported for this compound. Item: C=CCCn1nc(-c2ccccc2)oc1=O
Solution: inactive

Exercise: Write down the call the test reported for this compound. Item: CCOC(=O)N1Cc2ccoc2C1
Solution: inactive

Exercise: Write down the call the test reported for this compound. Item: O=[N+]([O-])c1ccccc1S(=O)(=O)c1ccccc1[N+](=O)[O-]
Solution: inactive

Exercise: Write down the call the test reported for this compound. Item: Cc1cc(Cl)ccc1NC(=O)C(=O)Cc1occc(=O)c1O
Solution: inactive

Exercise: Write down the call the test reported for this compound. Item: CCCCC#CS(=O)(=O)C(F)(F)F
Solution: inactive

Exercise: Write down the call the test reported for this compound. Item: C/C(=N/CC(=O)O)c1ccccc1
Solution: inactive

* * *

tested on: SF-295; experiment: NCI tumour cell line growth inhibition, 48 h
The source made the active and inactive calls. Rule as the data show it: active = GI50 up to about 1.1 µM and inactive = higher. Residues, ends and D or L forms follow the SMILES beside them. *: point of attachment. OBn = c1ccc(CO*)cc1
Experimental Endpoint: GI50

Example results:
Compound: CCC1=C(C(C)=O)[C@@H]2CCCCC[C@@H](C(=O)OC)C2C1=O (stereo partly specified)
GI50: > 100 µM (inactive)
--
Compound: COc1ccc(-c2ccc(CC(=O)O)cc2)cc1OC
GI50: > 100 µM (inactive)
--
Compound: CCCCCCCCCCCCCCCCc1c(O)nc(NC#N)nc1C(=O)OC
GI50: > 25 µM (inactive)
--
Compound: CC1(C)Oc2ccc3c(=O)cc(-c4ccc(F)cc4)oc3c2C1C(=O)O (stereo unspecified)
GI50: > 100 µM (inactive)
--
Compound: Cc1ccc(N2C(=O)C(=CN)C(=O)N(c3ccc(C)cc3)C2=O)cc1
GI50: > 100 µM (inactive)
--
Compound: OC1=C(c2ccccc2)C2=NCCN2c2ccccc21
GI50: 46.1 µM (inactive)
--
Compound: N#CC1(C#N)C(C#N)(C#N)C12CCCCCC2
GI50: > 39.7 µM (inactive)
--
Compound: COc1ccc2c(c1)[n+]([O-])c(/C(C)=N/NC(N)=S)c(C)[n+]2[O-]
GI50: 63.1 µM (inactive)
--
Compound: CCOC(=O)c1ccc(O)cc1
GI50: > 100 µM (inactive)
--
Compound: COc1ccc(NC(=O)C(=O)C(CC2C(=O)NC(=S)NC2=O)C(=O)c2ccc3ccccc3c2)c([N+](=O)[O-])c1 (stereo unspecified)
GI50: > 100 µM (inactive)

For every item below, please supply its GI50.
1. Nc1ccc(OCC(O)N2C(=O)c3ccccc3C2=O)cc1 (stereo unspecified)
2. COc1cc([C@@H]2c3cc4c(cc3[C@@H](OC(=O)c3cccc(N)c3)C3COC(=O)[C@@H]32)OCO4)cc(OC)c1O (stereo partly specified)
3. COC1C(O)C(C)OC(O[C@@H]2C[C@H]3CC[C@@H]4[C@H](CC[C@]5(C)[C@@H](C6=CC(=O)OC6)CC[C@]45O)[C@@]3(C)[C@H](O)C2)C1O (stereo partly specified)
4. Cc1ccc(SCC(CF)OC(C)n2cnc3c(O)nc(N)nc32)cc1 (stereo unspecified)
5. NC(CCC(=O)OCc1ccccc1)C(=O)NC(CCC(=O)OCc1ccccc1)C(=O)O (stereo unspecified) (H-Glu(OBn)-Glu(OBn)-OH; configuration not given here)
6. CN(NC(=O)c1ccc(Cl)cc1)C1=NCCCCN1
7. O=C(CCC(=O)N/N=C/c1ccccc1O)N/N=C/c1ccccc1O

Solution:
["> 100 µM (inactive)", "0.32 µM (active)", "< 0.0371 µM (active)", "> 100 µM (inactive)", "> 100 µM (inactive)", "> 100 µM (inactive)", "32.5 µM (inactive)"]

For every item below, please supply its GI50.
1. OCC12C=CC(C1)c1ccccc12 (stereo unspecified)
2. CC1(C)C(C(=O)OC(C#N)c2cccc(OCC(=O)OCc3ccccc3)c2)C1(C)C (stereo unspecified)
3. COC(=O)C(=O)C(C(C)=O)C(=O)NCc1ccccc1 (stereo unspecified)
4. FC1=C2CCCCCC2SC1(F)F (stereo unspecified)

Solution:
1. > 100 µM (inactive)
2. > 100 µM (inactive)
3. > 100 µM (inactive)
4. > 100 µM (inactive)

* * *

Assign GI50 to each entry below.
test system: HCC 2998; assay: NCI tumour cell line growth inhibition, 48 h
Activity calls are given as the source filed them. Rule as the data show it: active = GI50 up to about 1.1 µM and inactive = higher.

Compound: O=c1c2ccccc2nnn1-c1n[nH]c2ccccc12
GI50: > 100 µM (inactive)
//
Compound: CC(C)[C@@H](C)CC[C@@H](C)C1CC=C2[C@@H]3CCC4C[C@@H](O[Si](C)(C)C(C)(C)C)CC[C@]4(C)C3CC[C@@]21C (stereo not given in full)
GI50: > 100 µM (inactive)
//
Compound: N#CSC#Cc1ccc(C#CSC#N)cc1
GI50: 17.6 µM (inactive)
//
Compound: CC(=O)On1c(-c2ccccc2-c2nc3ccccc3n2OC(C)=O)nc2ccccc21
GI50: 33.4 µM (inactive)

For every item below, please supply its GI50.
1. CN(c1ccccc1)c1c(Cl)c(=O)oc2c1ccc1occc12
2. Cc1ccc(Oc2ccc(C)cc2N)cc1
3. NC1=NC2=c3ccccc3=C(c3cnccn3)C2(c2cnccn2)c2ccccc21 (stereo not given)
4. CC[C@@]1(N(C)C)C(=O)OCc2c1cc1n(c2=O)Cc2cc3ccccc3nc2-1
5. Cc1ccc(N2C(=O)C(=CN)C(=O)N(c3ccc(C)cc3)C2=O)cc1
6. CC1=C[C@]2(O)C(=O)[C@H](C)C[C@H]3[C@@H](CC[C@@](C)(O)/C=C\2C1=O)C3(C)C

Solution:
["> 100 µM (inactive)", "> 100 µM (inactive)", "> 100 µM (inactive)", "97.7 µM (inactive)", "10 µM (inactive)", "30.3 µM (inactive)"]
